Just for reference, the supplement of paper PMC10307832 is where these values come from.

The following compounds are shown together with reported relative viability values.
Tested on: NCI-H2405
Experiment Description: relative viability (nuclei count vs DMSO), 5 days (fraction); higher = more cells survive
Assay Conditions: first compound 0.4 µM

Compound	Val
Cc1sc2c(c1C)C(c1ccc(Cl)cc1)=N[C@@H](CC(=O)OC(C)(C)C)c1nnc(C)n1-2 [JQ1] + Nc1ncn([C@H]2C[C@H](O)[C@@H](CO)O2)c(=O)n1 [Decitabine] (partner 2 µM)	0.75
Cc1sc2c(c1C)C(c1ccc(Cl)cc1)=N[C@@H](CC(=O)OC(C)(C)C)c1nnc(C)n1-2 [JQ1] + NC(=O)Nc1cc(-c2cccc(F)c2)sc1C(=O)N[C@H]1CCCNC1 [AZD7762] (partner 0.2 µM)	0.646

--- query ---
Query :: Reported relative viability, compound Cc1sc2c(c1C)C(c1ccc(Cl)cc1)=N[C@@H](CC(=O)OC(C)(C)C)c1nnc(C)n1-2 [JQ1] + Cc1cc(Nc2cc(N3CCN(C)CC3)nc(Sc3ccc(NC(=O)C4CC4)cc3)n2)n[nH]1 [Tozasertib] (partner 0.1 µM) : ____
Result :: 0.723

====

Test system: NCI-H1915
Experiment Description: relative viability (nuclei count vs DMSO), 5 days (fraction); higher = more cells survive
Assay Conditions: first compound 0.002 µM
Attribute Measured: relative viability
Could you respond with only the numeric value?

Compound	relative viability
CC(=O)O[C@@]12CO[C@@H]1C[C@H](O)[C@@]1(C)C(=O)[C@H](O)C3=C(C)[C@@H](OC(=O)[C@H](O)[C@@H](NC(=O)OC(C)(C)C)c4ccccc4)C[C@@](O)([C@@H](OC(=O)c4ccccc4)[C@H]21)C3(C)C [Docetaxel] + O=C(c1cc(Cc2n[nH]c(=O)c3ccccc23)ccc1F)N1CCN(C(=O)C2CC2)CC1 [Olaparib] (partner 8 µM)	0.179
CC(=O)O[C@@]12CO[C@@H]1C[C@H](O)[C@@]1(C)C(=O)[C@H](O)C3=C(C)[C@@H](OC(=O)[C@H](O)[C@@H](NC(=O)OC(C)(C)C)c4ccccc4)C[C@@](O)([C@@H](OC(=O)c4ccccc4)[C@H]21)C3(C)C [Docetaxel] + Nc1ncn([C@H]2C[C@H](O)[C@@H](CO)O2)c(=O)n1 [Decitabine] (partner 2 µM)	0.231
CC(=O)O[C@@]12CO[C@@H]1C[C@H](O)[C@@]1(C)C(=O)[C@H](O)C3=C(C)[C@@H](OC(=O)[C@H](O)[C@@H](NC(=O)OC(C)(C)C)c4ccccc4)C[C@@](O)([C@@H](OC(=O)c4ccccc4)[C@H]21)C3(C)C [Docetaxel] + NC(=O)Nc1cc(-c2cccc(F)c2)sc1C(=O)N[C@H]1CCCNC1 [AZD7762] (partner 0.2 µM)	0.527

Here is another compound to look at.
Query :: Fill blank: measured relative viability of the compound CC(=O)O[C@@]12CO[C@@H]1C[C@H](O)[C@@]1(C)C(=O)[C@H](O)C3=C(C)[C@@H](OC(=O)[C@H](O)[C@@H](NC(=O)OC(C)(C)C)c4ccccc4)C[C@@](O)([C@@H](OC(=O)c4ccccc4)[C@H]21)C3(C)C [Docetaxel] + CC1(C)CCC(c2ccc(Cl)cc2)=C(CN2CCN(c3ccc(C(=O)NS(=O)(=O)c4ccc(N[C@H](CCN5CCOCC5)CSc5ccccc5)c(S(=O)(=O)C(F)(F)F)c4)cc3)CC2)C1 [Navitoclax] (partner 0.5 µM) is ____.
Result :: 0.524

====

Test system: SW 1573
Experiment Description: relative viability (nuclei count vs DMSO), 5 days (fraction); higher = more cells survive
Assay Conditions: first compound 0.05 µM
Binarize relative viability at 0.2; below is Condition met, at or above is Condition not met.

Query :: Below 0.2 on relative viability? Entry Nc1ccn([C@@H]2O[C@H](CO)[C@@H](O)[C@@H]2O)c(=O)n1 [Cytarabine] + Cc1cc(Nc2cc(N3CCN(C)CC3)nc(Sc3ccc(NC(=O)C4CC4)cc3)n2)n[nH]1 [Tozasertib] (partner 0.1 µM)
Result :: Condition met

Query :: Please check: relative viability for COc1cc2nccc(Oc3ccc(NC(=O)Nc4cc(C)on4)c(Cl)c3)c2cc1OC [Tivozanib] + CC(C)C[C@H](NC(=O)[C@H](Cc1ccccc1)NC(=O)c1cnccn1)B(O)O [Bortezomib] (partner 0.002 µM) , strictly under 0.2 or not?
Result :: Condition not met

Query :: Consider the compound Nc1ccn([C@@H]2O[C@H](CO)[C@@H](O)[C@@H]2O)c(=O)n1 [Cytarabine] + N=C(N)NC(=N)NCCc1ccccc1 [Phenformin] (partner 250 µM) . Is its relative viability strictly less than 0.2?
Result :: Condition not met

Query :: Criterion: relative viability strictly below 0.2. Is it met by COc1cc2nccc(Oc3ccc(NC(=O)Nc4cc(C)on4)c(Cl)c3)c2cc1OC [Tivozanib] + Nc1ncn([C@H]2C[C@H](O)[C@@H](CO)O2)c(=O)n1 [Decitabine] (partner 2 µM) ?
Result :: Condition not met

====

# key: entry, value: relative viability
Tested on: NCI-H1395
Experiment Description: relative viability (nuclei count vs DMSO), 5 days (fraction); higher = more cells survive
Assay Conditions: first compound 0.5 µM
# print the numeric value only

Query :: Suppose we examine the compound Nc1ccn([C@@H]2O[C@H](CO)[C@@H](O)[C@@H]2O)c(=O)n1 [Cytarabine] + CC1(C)CCC(c2ccc(Cl)cc2)=C(CN2CCN(c3ccc(C(=O)NS(=O)(=O)c4ccc(N[C@H](CCN5CCOCC5)CSc5ccccc5)c(S(=O)(=O)C(F)(F)F)c4)cc3)CC2)C1 [Navitoclax] (partner 0.5 µM) ; what relative viability value has been reported?
Result :: 0.368

Query :: Give the measured relative viability of Nc1ccn([C@@H]2O[C@H](CO)[C@@H](O)[C@@H]2O)c(=O)n1 [Cytarabine] + Cc1nc(Nc2ncc(C(=O)Nc3c(C)cccc3Cl)s2)cc(N2CCN(CCO)CC2)n1 [Dasatinib] (partner 0.075 µM) .
Result :: 0.282

====

Test system: H3255
Experiment Description: relative viability (nuclei count vs DMSO), 5 days (fraction); higher = more cells survive
Assay Conditions: first compound 0.002 µM
Items are presented alongside their recorded relative viability.
Answer with the value's number alone.

Molecule	relative viability
CC(=O)O[C@@]12CO[C@@H]1C[C@H](O)[C@@]1(C)C(=O)[C@H](O)C3=C(C)[C@@H](OC(=O)[C@H](O)[C@@H](NC(=O)OC(C)(C)C)c4ccccc4)C[C@@](O)([C@@H](OC(=O)c4ccccc4)[C@H]21)C3(C)C [Docetaxel] + CC(=O)Nc1cccc(-n2c(=O)n(C3CC3)c(=O)c3c(Nc4ccc(I)cc4F)n(C)c(=O)c(C)c32)c1 [Trametinib] (partner 0.02 µM)	0.52
CC(=O)O[C@@]12CO[C@@H]1C[C@H](O)[C@@]1(C)C(=O)[C@H](O)C3=C(C)[C@@H](OC(=O)[C@H](O)[C@@H](NC(=O)OC(C)(C)C)c4ccccc4)C[C@@](O)([C@@H](OC(=O)c4ccccc4)[C@H]21)C3(C)C [Docetaxel] + Nc1ncn([C@H]2C[C@H](O)[C@@H](CO)O2)c(=O)n1 [Decitabine] (partner 2 µM)	0.335

Now, please, on to the next molecule.
Query :: Give recorded relative viability with H3255 for the following molecule: CC(=O)O[C@@]12CO[C@@H]1C[C@H](O)[C@@]1(C)C(=O)[C@H](O)C3=C(C)[C@@H](OC(=O)[C@H](O)[C@@H](NC(=O)OC(C)(C)C)c4ccccc4)C[C@@](O)([C@@H](OC(=O)c4ccccc4)[C@H]21)C3(C)C [Docetaxel] + C[C@@H](Oc1cc(-c2cnn(C3CCNCC3)c2)cnc1N)c1c(Cl)ccc(F)c1Cl [Crizotinib] (partner 1 µM)
Result :: 0.376

====

System: NCI-H322M
Experiment Description: relative viability (nuclei count vs DMSO), 5 days (fraction); higher = more cells survive
Assay Conditions: first compound 0.02 µM
Attribute Measured: relative viability
The reply should be a number, written without any unit.

Known relative viability results, listed for orientation:
Compound	relative viability
CC(=O)O[C@@]12CO[C@@H]1C[C@H](O)[C@@]1(C)C(=O)[C@H](O)C3=C(C)[C@@H](OC(=O)[C@H](O)[C@@H](NC(=O)OC(C)(C)C)c4ccccc4)C[C@@](O)([C@@H](OC(=O)c4ccccc4)[C@H]21)C3(C)C [Docetaxel] + Nc1nc2[nH]cc(CCc3ccc(C(=O)N[C@@H](CCC(=O)O)C(=O)O)cc3)c2c(=O)[nH]1 [Pemetrexed] (partner 0.2 µM)	0.486
CC(=O)O[C@@]12CO[C@@H]1C[C@H](O)[C@@]1(C)C(=O)[C@H](O)C3=C(C)[C@@H](OC(=O)[C@H](O)[C@@H](NC(=O)OC(C)(C)C)c4ccccc4)C[C@@](O)([C@@H](OC(=O)c4ccccc4)[C@H]21)C3(C)C [Docetaxel] + NC(=O)Nc1cc(-c2cccc(F)c2)sc1C(=O)N[C@H]1CCCNC1 [AZD7762] (partner 0.2 µM)	0.39

// moving on: another record for relative viability
Query :: Returns the measured relative viability for the input compound. Input: CC(=O)O[C@@]12CO[C@@H]1C[C@H](O)[C@@]1(C)C(=O)[C@H](O)C3=C(C)[C@@H](OC(=O)[C@H](O)[C@@H](NC(=O)OC(C)(C)C)c4ccccc4)C[C@@](O)([C@@H](OC(=O)c4ccccc4)[C@H]21)C3(C)C [Docetaxel] + COc1cccc2cc(-c3nc([C@H]4CC[C@H](C(=O)O)CC4)n4ncnc(N)c34)[nH]c12 [OSI-027] (partner 0.5 µM)
Result :: 0.279
